- experiment: ATG_VDRE_CIS: Attagene CIS-FACTORIAL HepG2 Assay for human Vitamin D Receptor Element (VDRE) (AID 2282968)
- studyConditions: HepG2 VDRE cis-reporter transcription, actives raise or lower the signal
The source made the active and inactive calls. How the source made its calls: active means hit-call score of the fitted dose curve at least 0.9, where 1 is the maximum; inactive means score below 0.9.
Please answer using one outcome listed in active, inactive

> print(dat)
                             compound     label
1               c1ccc(N=Nc2ccccc2)cc1  inactive
2                          O=Cc1ccco1  inactive
3  Clc1ccc(C(c2ccc(Cl)cc2)C(Cl)Cl)cc1    active

State the result this test recorded for `O=[N+]([O-])c1ccc(Oc2ccc(Cl)cc2Cl)cc1` .
active

Tell me the recorded outcome of this test for `[Cl-].[Cl-].[Hg+2]` .
inactive

Tell me the assay call for `CCCSC(=O)N(CCC)CCC` please.
inactive

Hey, what did the test say about `c1ccc2c(c1)-c1cccc3cccc-2c13` ?
inactive

I'd appreciate the recorded outcome for `CC(C)N(Cc1ccccc1)C(=O)C(C)(C)C` from this test.
inactive

Status in this test for `N#CC(Br)(Br)C(N)=O` ?
inactive

How did this test come out for `COc1cc(C=O)cc2c1[C@H](COC(N)=O)[C@]1(OC(C)=O)ON2C[C@H]2[C@@H]1N2C(C)=O` ?
active

Recorded call for `O=C(Oc1ccc(Br)cc1)N1CCN2CCC1CC2` ?
inactive
